The origin of these recorded values is ChEMBL document CHEMBL3217528.

Below, each of the compounds is paired with its reported Activity value.
target.of.assay: UniProt:Q9HC97
Sequence (Q9HC97 whole entry, the tested form may be a part): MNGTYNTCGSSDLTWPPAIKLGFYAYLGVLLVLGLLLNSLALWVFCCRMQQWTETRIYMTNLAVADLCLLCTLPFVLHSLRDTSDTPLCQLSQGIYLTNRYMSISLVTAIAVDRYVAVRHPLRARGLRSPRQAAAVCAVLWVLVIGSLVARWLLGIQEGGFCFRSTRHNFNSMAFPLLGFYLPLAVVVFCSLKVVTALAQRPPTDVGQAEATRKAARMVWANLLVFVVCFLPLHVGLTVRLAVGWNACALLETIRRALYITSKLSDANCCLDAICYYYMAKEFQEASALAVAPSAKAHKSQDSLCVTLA
test.summary: Agonist activity at human GPR35 assessed as induction of beta-arrestin recruitment by beta-galactosidase enzyme fragment complementation method relative to zaprinast
Set-up: concentration or dose not given beside the values
The response must be a number in % with no trailing unit.

O=C1/C(=C/c2ccccc2)N=C2SCCCN12; -5
O=C1/C(=C/c2cccc(F)c2F)N=C2SCCCN12; -4
O=C1/C(=C/c2cccc(OCc3cccc(Cl)c3)c2)N=C2SCCCCN12; -3

get_value(item= O=C1/C(=C/c2ccccc2Cl)N=C2SCCCN12 , readout=Activity) returns -22

The compound listed as COc1ccc(/C=C2\N=C3SCCCN3C2=O)c(OC)c1 shows Activity equal to -7

Per the record, O=C1/C(=C/c2cccc(OCc3ccc(Cl)cc3)c2)N=C2SCCCCN12 has Activity of 6

Reported Activity for O=C1/C(=C/c2cccc(OCc3ccc(Cl)cc3)c2)N=C2SCCCN12 was -1
